- target-or-test-system: T1, anti-mFc (AMC) Octet biosensor, blank
- T1 construct: Sensor without captured protein, used as blank; also called Blank AMC Sensor
- test: BLI Octet, blank AMC sensor, 100 nM mAb, 25C
measured-quantity: mAb Binding Response (nm)

1) H4H15330P (antibody, human IgG4, V domains shown, H4H prefix: human IgG4 Fc) VH: QVQLVESGGGLVKPGGSLRLSCAASGFTFSDYYMSWIRQAPGKGLEWISHISGSGRTTHYADSMKGRFTISRDNAKNSLYLQMNSLRAEDTAVYYCVREGGFNWNYEGTFDIWGQGTMVTVSS VL: DIVMTQTPLSSPVTLGQPASISCRSSQSLLHSDQNTYLSWLHQRPGQPPRLLIYKISNRFSGVPDRFSGSGAGTDFTLKISRVEAEDVGIYYCMQGTQFPLTFGGGTKVEIK | 0.01
2) H4H15319P (antibody, human IgG4, V domains shown, H4H prefix: human IgG4 Fc) VH: EVQLVESGGGVVRPGGSLRLSCAASGFTVDDYDMSWVRQTPGKGLEWISGINWNGGNTGYADSVKGRFIISRDSAKNSLFLQMNSLRAEDTALYHCWGAIGAFDIWGQGTMVTVSS VL: DIVMTQSPLSSPVTLGQPASISCRSSQSLVHSDGGTYLSWLQQRPGQPPRLLIYKIFNRFSGVPDRFSGSGAGTDFTLRISRVEAEDVGVYYCMQTTQFPLTFGGGTKVEIK | 0
3) H4H15343P (antibody, human IgG4, V domains shown, H4H prefix: human IgG4 Fc) VH: QVQLVESGGGVVQPGRSLRLSCAASGFTFSSYGMHWVRQAPGKGLEWVAVISYAGSNKYYADSVKGRFTISRDNSKNTLYLQMNGLRAEDTAVYYCAKDPYGDYEGVLDYWGQGTLVTVSS VL: DIQMTQSPSSLSASVGDRVTITCQASQDISNYLNWYQQKPGKAPKLLIYDASNLETGVPSRFSGSGSGTDFTFTISSLQPEDIATYYCQQYDHLPITFGQGTRLEIK | 0.01
